- Test system: EGFR Del19/T790M/C797S (H1975-clone #28)
- protocolDescription: EGFR degradation HTRF assay, H1975-clone #28 DTC cells
- Type: cell-based
- assaySetup: H1975 # 28 DTC cells; maximum percentage of inhibition (degradation)
Dmax (%) H1975 # 28 DTC values for the compounds below.
Hi! Could you send only the number? It should be in %, unit omitted.

Guide cases for Dmax (%) H1975 # 28 DTC, answers given:
compound	u	Dmax (%) H1975 # 28 DTC
CCOc1cc(N2CCC(N3CCN(CCc4c(F)cc5c(oc(=O)n5C5CCC(=O)NC5=O)c4C)CC3)CC2)c(CC)cc1Nc1ncc(Br)c(Nc2ccc3c(=O)n(CC)ncc3c2P(C)(C)=O)n1 (centres unmarked)	%	71.47
CCc1cc(Nc2ncc(Br)c(Nc3ccc4nc(C#N)ccc4c3P(C)(C)=O)n2)c(OC)cc1N1CCC(N2CCN(CCc3cc(F)c([C@H]4CCC(=O)NC4=O)c(F)c3)CC2)CC1	%	87.08
CCOc1cc(N2CCC(N3CCN(CCc4cccc5c4n(C4CC4)c(=O)n5C4CCC(=O)NC4=O)CC3)CC2)c(CC)cc1Nc1ncc(Br)c(Nc2ccc3nc(CC)ccc3c2P(C)(C)=O)n1 (centres unmarked)	%	74.46
CCOc1cc(N2CCC(N3CCN(CCc4c(F)cc5c(oc(=O)n5C5CCC(=O)NC5=O)c4F)CC3)CC2)c(CC)cc1Nc1ncc(Br)c(Nc2ccc3c(=O)n(CC)ncc3c2P(C)(C)=O)n1 (centres unmarked)	%	71.58

I'd like to know its Dmax (%) H1975 # 28 DTC. The compound in question is CCc1ccc2c(P(C)(C)=O)c(Nc3nc(Nc4cc(CC)c(N5CCC(N6CCC(CCc7cc(F)c(C8CCC(=O)NC8=O)c(F)c7)CC6)CC5)cc4OC)ncc3Br)ccc2n1 (centres unmarked) 76.91

----------
DC50 values for the molecules below.
- systemName: EGFR L858R/T790M/C797S (BaF3-LTC cells) (Homo sapiens, UniProt P00533, C797S/L858R/T790M)
- Construct: expressed in transfected cells; host or cells: BaF3
- Sequence (P00533 25-1210 T790M/C797S/L858R): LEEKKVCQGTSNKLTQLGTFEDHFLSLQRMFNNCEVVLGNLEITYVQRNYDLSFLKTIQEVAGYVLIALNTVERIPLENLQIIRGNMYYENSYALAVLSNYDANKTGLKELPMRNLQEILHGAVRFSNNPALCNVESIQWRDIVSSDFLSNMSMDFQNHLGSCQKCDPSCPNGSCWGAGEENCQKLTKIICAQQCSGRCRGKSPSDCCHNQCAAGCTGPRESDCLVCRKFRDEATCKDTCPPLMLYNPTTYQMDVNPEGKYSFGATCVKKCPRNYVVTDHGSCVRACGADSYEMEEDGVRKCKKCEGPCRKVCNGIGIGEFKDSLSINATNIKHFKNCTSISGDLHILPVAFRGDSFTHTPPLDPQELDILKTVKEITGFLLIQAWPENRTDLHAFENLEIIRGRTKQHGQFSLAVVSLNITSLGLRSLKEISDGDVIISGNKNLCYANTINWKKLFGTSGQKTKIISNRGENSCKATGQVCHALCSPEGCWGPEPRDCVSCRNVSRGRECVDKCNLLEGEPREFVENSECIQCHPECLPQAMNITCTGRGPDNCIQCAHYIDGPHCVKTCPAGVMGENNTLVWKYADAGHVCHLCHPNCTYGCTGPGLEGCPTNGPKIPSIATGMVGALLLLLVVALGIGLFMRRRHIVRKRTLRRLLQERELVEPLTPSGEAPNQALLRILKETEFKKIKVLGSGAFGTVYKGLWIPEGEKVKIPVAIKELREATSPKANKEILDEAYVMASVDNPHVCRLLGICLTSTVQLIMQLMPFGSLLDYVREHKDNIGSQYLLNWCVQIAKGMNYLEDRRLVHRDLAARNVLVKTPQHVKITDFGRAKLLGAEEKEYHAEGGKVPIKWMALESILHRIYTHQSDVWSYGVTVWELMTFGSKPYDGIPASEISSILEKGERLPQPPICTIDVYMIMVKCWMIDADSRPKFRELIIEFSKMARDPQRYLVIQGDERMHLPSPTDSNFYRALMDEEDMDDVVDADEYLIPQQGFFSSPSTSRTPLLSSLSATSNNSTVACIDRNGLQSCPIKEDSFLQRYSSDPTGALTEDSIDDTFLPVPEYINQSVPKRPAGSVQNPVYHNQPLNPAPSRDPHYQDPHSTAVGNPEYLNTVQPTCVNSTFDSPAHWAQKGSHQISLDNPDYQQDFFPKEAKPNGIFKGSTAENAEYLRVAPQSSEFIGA
- protocolDescription: EGFR degradation HTRF assay, BaF3-LTC cells
- Type: cell-based
- assaySetup: BaF3-LTC, 16h treatment; read-out: LTC DC50
Hi! Could you send only the number? It should be in nM, unit omitted.

Guide cases for DC50, answers given:
molecule	quantity	u	observedResult
CCc1cc(Nc2ncc(Br)c(Nc3ccc4nccnc4c3P(C)(C)=O)n2)c(OC)cc1N1CCC(N2CCN(C[C@H]3CCN(c4ccc(C5CCC(=O)NC5=O)cc4)C3)CC2)CC1 (stereo partly drawn) [Example 220]	DC50	nM	43.2
CCc1cc(Nc2ncc(Br)c(Nc3ccc4nc(C)ccc4c3P(C)(C)=O)n2)c(OC)cc1N1CCC(N2CCN(C(=O)C3CCN(c4ccc5c(c4)C(C)(C)C(=O)N5C4CCC(=O)NC4=O)CC3)CC2)CC1 (stereo not drawn) [Example 436]	DC50	nM	3.2

# evaluate next
I'd like to know its DC50. The molecule in question is CCc1cc(Nc2ncc(Br)c(Nc3ccc4nc(C)ccc4c3P(C)(C)=O)n2)c(OC)cc1N1CCC(N2CCN(CCc3ccc4nn(C5CCC(=O)NC5=O)cc4c3)CC2)CC1 (stereo not drawn) [Example 257] 17.4
